- testTarget: P. falciparum apicoplast DNA polymerase (Pf-apPOL) (Plasmodium falciparum, UniProt Q8ILY1)
- Sequence (Q8ILY1 entry or part of it): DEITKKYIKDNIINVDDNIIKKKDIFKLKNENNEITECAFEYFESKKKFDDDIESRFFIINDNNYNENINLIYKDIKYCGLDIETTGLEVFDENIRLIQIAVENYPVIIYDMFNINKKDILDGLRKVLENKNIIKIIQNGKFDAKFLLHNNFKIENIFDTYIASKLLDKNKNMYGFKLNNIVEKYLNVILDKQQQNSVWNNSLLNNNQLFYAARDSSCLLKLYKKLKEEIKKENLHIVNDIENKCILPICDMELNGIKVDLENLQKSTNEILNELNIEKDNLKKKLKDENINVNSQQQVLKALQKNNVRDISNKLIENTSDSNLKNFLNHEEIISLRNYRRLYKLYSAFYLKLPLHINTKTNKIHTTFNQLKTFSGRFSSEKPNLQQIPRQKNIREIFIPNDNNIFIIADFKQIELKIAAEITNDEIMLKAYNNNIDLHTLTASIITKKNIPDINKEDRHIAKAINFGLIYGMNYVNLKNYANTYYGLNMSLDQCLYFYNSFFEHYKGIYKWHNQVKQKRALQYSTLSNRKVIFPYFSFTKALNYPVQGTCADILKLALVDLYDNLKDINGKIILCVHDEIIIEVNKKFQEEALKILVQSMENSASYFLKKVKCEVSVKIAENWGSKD
- assayExplanation: Fluorescence-based high-throughput DNA polymerase assay (molecular beacon), primary screen and dose-response
- Assay type: biochemical
- cond: DRC-1; concentration 5; 10'
parameterMeasured: % inhibition Apo pol 10' (%)
Respond with the bare value in %.

Known results for molecules:
CCCCCc1c2c(cc(O)c1C(=O)O)OC(=O)c1c(cc(OC)cc1C(=O)CCCC)O2 = 31.5197
Cc1cc(C)nc(Nc2nc(CC(=O)Nc3nc(-c4ccco4)cs3)cs2)n1 = 13.7887
O=C(Nc1c2c(nn1-c1ccccc1)CSC2)c1ccco1 = 39.8975
Nc1ncnc(NC2CCCCC2)c1[N+](=O)[O-] = -4.7638
O=C(O)c1cc([N+](=O)[O-])c(N2CCN(c3cccc(C(F)(F)F)c3)CC2)c([N+](=O)[O-])c1 = 24.3374
COc1ccc(C=C2Oc3c(ccc4c3CN(Cc3ccco3)CO4)C2=O)c(OC)c1 = 2.359
CCc1ccccc1NC(=O)c1ccc(-c2ncccc2NC(C)=O)cc1 = 20.5956
COc1ccc(-c2occ(C(=O)O)c2C(=O)O)cc1 = 21.9361

Query molecule follows.
QUERY: Request the reported % inhibition Apo pol 10' associated with "Oc1cccnc1/N=C/c1cc(I)cc(I)c1O"
RESULT: 35.1256

* * *

- testTarget: bacteriophage T4 DNA polymerase (Enterobacteria phage T4)
- Construct: made in house
- Sequence (P04415 whole entry): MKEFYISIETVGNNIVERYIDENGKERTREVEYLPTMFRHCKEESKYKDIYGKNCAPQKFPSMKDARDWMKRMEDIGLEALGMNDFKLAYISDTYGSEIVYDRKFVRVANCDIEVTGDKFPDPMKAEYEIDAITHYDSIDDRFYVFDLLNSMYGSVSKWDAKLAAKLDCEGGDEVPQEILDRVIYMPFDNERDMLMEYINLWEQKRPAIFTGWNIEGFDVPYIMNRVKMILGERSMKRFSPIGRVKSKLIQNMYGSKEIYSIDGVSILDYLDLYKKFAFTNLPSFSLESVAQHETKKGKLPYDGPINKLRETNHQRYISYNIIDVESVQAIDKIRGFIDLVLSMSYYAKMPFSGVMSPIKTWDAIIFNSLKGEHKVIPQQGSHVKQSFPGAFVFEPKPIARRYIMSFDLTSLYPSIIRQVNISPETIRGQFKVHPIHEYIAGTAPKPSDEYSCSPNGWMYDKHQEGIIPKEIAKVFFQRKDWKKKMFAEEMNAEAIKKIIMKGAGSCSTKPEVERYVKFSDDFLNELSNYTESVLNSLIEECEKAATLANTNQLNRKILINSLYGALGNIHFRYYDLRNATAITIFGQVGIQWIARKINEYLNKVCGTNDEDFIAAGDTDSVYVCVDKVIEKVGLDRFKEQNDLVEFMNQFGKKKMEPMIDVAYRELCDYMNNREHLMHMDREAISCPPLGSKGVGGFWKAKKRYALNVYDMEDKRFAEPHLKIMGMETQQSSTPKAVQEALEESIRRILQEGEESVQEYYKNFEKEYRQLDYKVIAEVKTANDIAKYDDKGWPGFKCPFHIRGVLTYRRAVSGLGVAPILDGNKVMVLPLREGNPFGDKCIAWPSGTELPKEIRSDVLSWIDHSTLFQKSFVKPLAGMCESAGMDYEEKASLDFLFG
- assayExplanation: Counter-screen against bacteriophage T4 DNA polymerase
- Type: biochemical
- cond: DRC-2; read at 90'; concentration 40
Parameter threshold = 20%. Response is true when % inhibition T4 90' 40 meets or exceeds it, else false.

Cc1cc2[nH]c(C(=O)Nc3ccc(F)cc3)c(CN3CCOCC3)c2s1 = true
Cc1nc(C)c2c(n1)N(CC1CCCCC1)C(=O)CC2 = false
Cc1cccc(-c2noc(C(=O)NNC(=O)C(Cl)(Cl)Cl)n2)c1 = false
Cn1nc(-c2nc(-c3ccccc3)no2)c2c1CCN(C(=O)Cc1cccs1)C2 = true
O=C(CCc1csc(NC(=O)Nc2ccccc2)n1)Nc1nc2ccccc2s1 = false
CC(=O)OCC1=C(C(=O)[O-])N2C(=O)[C@@H](NC(=O)Cc3cccs3)[C@H]2SC1.[Na+] = true
COc1ccccc1CC(=O)N1CCc2c(nc3cc(-c4ccccc4Cl)[nH]n3c2=O)C1 = false
N#Cc1c(O)nc(N2CCCCC2)nc1-c1ccc2c(c1)OCO2 = false

Pending compound:
QUERY: Quick check, % inhibition T4 90' 40 >= 20%? Cc1ccc(N2CCC(NC(=O)Cc3cccs3)C2=O)cc1C (stereo not drawn)
RESULT: true

* * *

- testTarget: P. falciparum apicoplast DNA polymerase (Pf-apPOL) (Plasmodium falciparum, UniProt Q8ILY1)
- assayExplanation: Fluorescence-based high-throughput DNA polymerase assay (molecular beacon), primary screen and dose-response;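 on % inhibition ApPOL 90': test concentration in µM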
- Assay type: biochemical
- cond: DRC-2; 90'; concentration 5
parameterMeasured: % inhibition ApPOL 90' (%)
Respond with the bare value in %.

Known results for compounds:
O=c1cc(-c2ccccc2)oc2c(O)c(O)ccc12 [Molecule 84, Oc1ccc2c(c1O)oc(cc2=O)c1ccccc1] = 10
COc1ccc(NC(=O)Cn2ccc3c(=O)[nH]ccc32)cc1 [Molecule 13, COc1ccc(cc1)NC(=O)Cn1ccc2c1cc[nH]c2=O] = 16
O=C(Cc1cc(=O)[nH]c(SCc2ccccc2)n1)Nc1ccc2c(c1)OCO2 [Molecule 46] = -0.186

QUERY: GET /values?readout=% inhibition ApPOL 90'&system=P. falciparum apicoplast DNA polymerase (Pf-apPOL) (Plasmodium falciparum, UniProt Q8ILY1)&item= O=C(Nc1c2c(nn1-c1ccc(Oc3ccccc3)cc1)CSC2)c1ccco1 [KU0055927]
RESULT: 9.5

* * *

- testTarget: P. falciparum apicoplast DNA polymerase (Pf-apPOL) (Plasmodium falciparum, UniProt Q8ILY1)
- assayExplanation: Fluorescence-based high-throughput DNA polymerase assay (molecular beacon), primary screen and dose-response
- Format: biochemical
- cond: DRC-1; read at 180'; concentration 40
- Text: The HT assay employs a molecular beacon, a stem-loop DNA template with a Cy3 dye and the Black Hole Quencher on the 3′ and 5′ ends of the DNA, respectively. Pf-apPOL concentration is based on a calculated absorptivity of ε280 = 56750 M^−1 cm^−1. […] To identify apPOL inhibitors we utilised our previously developed high-throughput DNA polymerase assay. […] The assay accurately recapitulates the kinetic behaviour of apPOL, as measured through more conventional low-throughput gel-based assays. […]
Parameter threshold = 50%. Response is label 1 when % inhibition apPOL 180' 40 meets or exceeds it, else label 0.

Cc1cccc(-c2noc(C(=O)NNC(=O)C(Cl)(Cl)Cl)n2)c1 = label 0

QUERY: Quick check, % inhibition apPOL 180' 40 >= 50%? "Cc1nc(C)c2c(n1)N(CC1CCCCC1)C(=O)CC2"
RESULT: label 1

QUERY: Quick check, % inhibition apPOL 180' 40 >= 50%? "O=C(CCc1csc(NC(=O)Nc2ccccc2)n1)Nc1nc2ccccc2s1"
RESULT: label 0

QUERY: Quick check, % inhibition apPOL 180' 40 >= 50%? Cc1ccc(N2CCC(NC(=O)Cc3cccs3)C2=O)cc1C (centres unmarked)
RESULT: label 0

QUERY: Quick check, % inhibition apPOL 180' 40 >= 50%? COc1ccc(C2CC(c3ccc(Cl)cc3Cl)Nc3nc(N)nn32)cc1OC (centres unmarked)
RESULT: label 1

QUERY: Quick check, % inhibition apPOL 180' 40 >= 50%? "Cn1nc(-c2nnc(-c3ccccc3F)o2)c2c1CCN(C(=O)c1ccccc1Cl)C2"
RESULT: label 1

QUERY: Quick check, % inhibition apPOL 180' 40 >= 50%? "CC(=O)Nc1cc(C(=O)c2cccs2)nn(-c2ccc(Cl)cc2)c1=O"
RESULT: label 0

QUERY: Quick check, % inhibition apPOL 180' 40 >= 50%? "O=C(c1ccccc1)N1CCc2c(nc3cc(-c4ccccc4)[nH]n3c2=O)C1"
RESULT: label 1

QUERY: Quick check, % inhibition apPOL 180' 40 >= 50%? "COc1ccc(/C=C/c2cc(C(=O)O)c3ccccc3n2)cc1"
RESULT: label 1

QUERY: Quick check, % inhibition apPOL 180' 40 >= 50%? "Cc1cc2[nH]c(C(=O)Nc3ccc(F)cc3)c(CN3CCOCC3)c2s1"
RESULT: label 0

QUERY: Quick check, % inhibition apPOL 180' 40 >= 50%? CC(C)CC(C(=O)O)N1C(=O)C2C3C=CC(C2C1=O)C1C(=O)N(C(CC(C)C)C(=O)O)C(=O)C31 (centres unmarked)
RESULT: label 0

* * *

- testTarget: P. falciparum apicoplast DNA polymerase (Pf-apPOL) (Plasmodium falciparum, UniProt Q8ILY1)
- assayExplanation: Fluorescence-based high-throughput DNA polymerase assay (molecular beacon), primary screen and dose-response
- Assay type: biochemical
- cond: DRC-2, 5', concentration 2.5
Recorded % inhibition Apo pol 5' values for a group of compounds are listed next.
Respond with the bare value in %.

Cc1ncc(CSc2nc(C(C)(C)C)cs2)c(CO)c1O = 6.56
O=[N+]([O-])c1cc2c(cc1CN1CCCCCC1)OCO2 = 17
CCSc1nnc(NC(=O)Cc2csc(NC(=O)c3cnccn3)n2)s1 = 1.36
CSCCC(C)(O)CNC(=O)C1CC1 (stereo not shown) = 0.182
CSC(C)C(=O)C=CN(C)C (stereo not shown) = 11
CO/N=C(\C(=O)N[C@@H]1C(=O)N2C(C(=O)[O-])=C(CSc3nc(=O)c([O-])nn3C)CSC12)c1csc(N)n1.[Na+].[Na+] (stereo partly shown) = 1.37
COc1ccc(C(=O)Nc2cccc(-c3nc4ncccc4o3)c2)cc1[N+](=O)[O-] = 0.145
Cn1nc(C(=O)N2CCc3c(nc4cc(-c5ccccc5)[nH]n4c3=O)C2)c2ccccc21 = 5.33
CN1CC(=Cc2ccco2)C(=O)C(=Cc2ccco2)C1 = 27
O=C(O)CC1SC(c2ccc3c(c2)OCO3)=NC1=O (stereo not shown) = 14

QUERY: GET /values?readout=% inhibition Apo pol 5'&system=P. falciparum apicoplast DNA polymerase (Pf-apPOL) (Plasmodium falciparum, UniProt Q8ILY1)&item= O=C(NNC(=O)C(F)(F)Sc1ccccc1)c1ccsc1 [Molecule 68, O=C(C(Sc1ccccc1)(F)F)NNC(=O)c1cscc1]
RESULT: 9

QUERY: GET /values?readout=% inhibition Apo pol 5'&system=P. falciparum apicoplast DNA polymerase (Pf-apPOL) (Plasmodium falciparum, UniProt Q8ILY1)&item= "COc1ccc2c(c1)CCc1c-2nc2ccc(Br)cc2c1C(=O)O"
RESULT: 21

QUERY: GET /values?readout=% inhibition Apo pol 5'&system=P. falciparum apicoplast DNA polymerase (Pf-apPOL) (Plasmodium falciparum, UniProt Q8ILY1)&item= "O=C(Nc1nnc(-c2cccs2)o1)c1ccc([N+](=O)[O-])o1"
RESULT: 3

QUERY: GET /values?readout=% inhibition Apo pol 5'&system=P. falciparum apicoplast DNA polymerase (Pf-apPOL) (Plasmodium falciparum, UniProt Q8ILY1)&item= "O=C(Nc1nnc(-c2ccno2)o1)c1ccc2ncsc2c1"
RESULT: 9

QUERY: GET /values?readout=% inhibition Apo pol 5'&system=P. falciparum apicoplast DNA polymerase (Pf-apPOL) (Plasmodium falciparum, UniProt Q8ILY1)&item= "COc1ccccc1CCC(=O)N1CCc2c(nc3cc(-c4ccccc4)[nH]n3c2=O)C1"
RESULT: 6

QUERY: GET /values?readout=% inhibition Apo pol 5'&system=P. falciparum apicoplast DNA polymerase (Pf-apPOL) (Plasmodium falciparum, UniProt Q8ILY1)&item= "CN(C)C=CC(=O)c1ccccn1"
RESULT: 10

QUERY: GET /values?readout=% inhibition Apo pol 5'&system=P. falciparum apicoplast DNA polymerase (Pf-apPOL) (Plasmodium falciparum, UniProt Q8ILY1)&item= "O=C(Nc1ncc([N+](=O)[O-])s1)c1ccc2c(c1)C(=O)N(N1C(=O)c3ccccc3C1=O)C2=O"
RESULT: 8

QUERY: GET /values?readout=% inhibition Apo pol 5'&system=P. falciparum apicoplast DNA polymerase (Pf-apPOL) (Plasmodium falciparum, UniProt Q8ILY1)&item= "O=C(O)CC1=NN(c2cccc([N+](=O)[O-])c2)C(=O)C1"
RESULT: 25

QUERY: GET /values?readout=% inhibition Apo pol 5'&system=P. falciparum apicoplast DNA polymerase (Pf-apPOL) (Plasmodium falciparum, UniProt Q8ILY1)&item= "O=C(O)c1c(F)c(F)c(-c2c(F)c(F)c(C(=O)O)c(F)c2F)c(F)c1F"
RESULT: 4

QUERY: GET /values?readout=% inhibition Apo pol 5'&system=P. falciparum apicoplast DNA polymerase (Pf-apPOL) (Plasmodium falciparum, UniProt Q8ILY1)&item= "Oc1ccc(N=Nc2ccccc2)c(O)c1"
RESULT: 1.77

QUERY: GET /values?readout=% inhibition Apo pol 5'&system=P. falciparum apicoplast DNA polymerase (Pf-apPOL) (Plasmodium falciparum, UniProt Q8ILY1)&item= "O=C(O)C(=O)Nc1nc(-c2ccc3c(c2)OCCO3)cs1"
RESULT: 23

QUERY: GET /values?readout=% inhibition Apo pol 5'&system=P. falciparum apicoplast DNA polymerase (Pf-apPOL) (Plasmodium falciparum, UniProt Q8ILY1)&item= "O=C(Nc1nnc(-c2ccno2)o1)c1ccc2c(c1)OCO2"
RESULT: 4.65

# credit: paper PMC9090415
